Some compounds, each annotated with its measured melting point.
value_kind: melting point

{"smiles_structure": "CSc1ccc(-c2c(Cl)nc(Cl)nc2-c2ccccc2)cc1", "value_kind": "melting point", "experimental_result": "88 to 90 °C"}
{"smiles_structure": "O=C1NCCc2[nH]c3ccc(F)cc3c21", "value_kind": "melting point", "experimental_result": "242 to 245 °C"}
{"smiles_structure": "CCCCCCOc1ccc2c(c1CCC)OC(CCC(=O)O)(CCC(=O)O)CC2=O", "value_kind": "melting point", "experimental_result": "164 to 165 °C"}
{"smiles_structure": "N#Cc1cn(-c2ccccn2)nc1-c1ccc([N+](=O)[O-])o1", "value_kind": "melting point", "experimental_result": "207 to 208 °C"}
{"smiles_structure": "Cc1oc(-c2ccccc2)nc1CCOc1ccc(C=O)c2sccc12", "value_kind": "melting point", "experimental_result": "154 °C"}

---

Some molecules, each annotated with its measured melting point.

{"molecule": "COc1ccccc1N1CCN(Cc2ccccc2)CC1=O", "melting point": "109 to 111 °C"}
{"molecule": "CC(C)=CCn1c(N(C)C[C@@H](C)N)nc2c1c(=O)n(C)c(=O)n2C", "melting point": "101 to 104 °C"}
{"molecule": "O=C1C(=O)c2ccc(Br)cc2C2=C1SCC1(CCN(CC(O)Cc3ccccc3)CC1)O2 (stereo not given)", "melting point": "82 to 83 °C"}
{"molecule": "c1cnc2c(c1)-c1sccc1C2Cc1ccncc1 (stereo not given)", "melting point": "178 to 181 °C"}
{"molecule": "N#Cc1ccc(/C=C/C=C/C=O)c(F)c1", "melting point": "174 to 177 °C"}
{"molecule": "CCC1Cc2cc(OCC(=O)O)c(C)c(C)c2C1=O (stereo not given)", "melting point": "206 °C"}
{"molecule": "COc1ccc(Nc2ccn(-c3ccccc3)n2)cc1", "melting point": "96 to 98 °C"}
{"molecule": "O=C1Cc2cc(C(F)(F)F)ccc2N1", "melting point": "188 to 190 °C"}
{"molecule": "CC1(C)CCC2(C(=O)O)CCC3(C)C(=CCC4C5(C)Cc6c(n[nH]c6N)C(C)(C)C5CCC43C)C2C1 (stereo not given)", "melting point": "263 to 266 °C"}
{"molecule": "CCN(CC)C(=O)Oc1c(N2CCCC2)c(=O)n(-c2ccccc2)c2ncccc12", "melting point": "158 to 160 °C"}

---

Some molecules, each annotated with its measured melting point.
value_kind: melting point

{"molecule": "NS(=O)(=O)c1ccc(CCN2CC=C(c3c[nH]c(-c4ccc(F)cc4)c3-c3ccncc3)CC2)cc1", "experimental_result": "220 to 221 °C"}
{"molecule": "O=C1CCC(c2ccc(Br)cc2)CC1", "experimental_result": "59.4 to 61.4 °C"}
{"molecule": "COc1c(N2C[C@H]3CC=C[C@@]3(N)C2)c(F)cc2c(=O)c(C(=O)O)cn([C@@H]3C[C@@H]3F)c12", "experimental_result": "206 to 208 °C"}
{"molecule": "CS(=O)c1onc(-c2ccccc2)c1-c1ccc(S(N)(=O)=O)cc1 (stereo not given)", "experimental_result": "194 to 204 °C"}
{"molecule": "CC1(C)CCC(C)(C)c2cc(-c3cc4ccc(C(=O)O)cc4o3)ccc21", "experimental_result": "280 °C"}
{"molecule": "Cc1c(O)ccc2c1OCC1c3ccccc3OC21 (stereo not given)", "experimental_result": "160 to 162 °C"}
{"molecule": "COc1ccc(-c2ccncc2)cc1-c1ccc2nonc2c1", "experimental_result": "187 to 192 °C"}
{"molecule": "CCOC(=O)c1cc(C(=O)CBr)[nH]n1", "experimental_result": "174 to 176 °C"}
{"molecule": "Cc1ccc2oc(N(C=O)[C@@H](Cc3ccccn3)c3ncc(-c4ccc(N5CCOCC5)cc4)n3C)cc2c1", "experimental_result": "125 to 127 °C"}
{"molecule": "CC#CCOc1ccc(S(=O)(=O)N(C)[C@H]2CCC[C@H]2C(=O)NO)cc1", "experimental_result": "160 to 164 °C"}
{"molecule": "c1ccc(NC[C@@H]2N[C@H]2c2ccccc2)cc1 (relative stereo)", "experimental_result": "96 to 97 °C"}
{"molecule": "ON=C(Cl)c1ccccc1", "experimental_result": "50 to 51 °C"}
{"molecule": "COCc1ccoc1C(=O)c1[nH]c2cc(Cl)ccc2c1CC(=O)O", "experimental_result": "212 to 213 °C"}
{"molecule": "CS(=O)(=O)c1ccc(-n2nc(CO)cc2-c2ccc(-c3ccco3)cc2)cc1", "experimental_result": "176 °C"}
{"molecule": "COc1ccc(C(=O)Nc2c(Cl)cncc2Cl)c2c1oc1ccc(NCC(=O)O)cc12", "experimental_result": "> 260 °C"}
{"molecule": "CCCCNc1cc2c(cc1[N+](=O)[O-])OCO2", "experimental_result": "137 °C"}
{"molecule": "O=C(O)C1=Cc2cc(Cl)c(Oc3cccc(C(=O)O)c3)cc2OC1C(F)(F)F (stereo not given)", "experimental_result": "288 to 289 °C"}
{"molecule": "Cn1c(C(F)(F)F)cc(=O)n(-c2cc(N(S(C)(=O)=O)S(C)(=O)=O)c(Cl)cc2F)c1=O", "experimental_result": "282 to 285 °C"}
{"molecule": "OCc1cccnc1N1CCN(c2nc3cc(C(F)(F)F)cc(Cl)c3[nH]2)CC1", "experimental_result": "252 °C"}
{"molecule": "CC(=O)N(C)C(=N[N+](=O)[O-])NCc1csc(Cl)n1", "experimental_result": "105 to 108 °C"}
